TARGET_SYSTEM: pooled human IgG (human IgG1,2,3 and 4)
We begin with a simple list: items and their reported Enzyme Activity Endpoint Assay: Fc.
The reply should be a number in ng/µL, with the unit left off.

INSERT INTO measurements (protein, observed_property, unit_of_measure, meas_value) VALUES
  ('PRT-185 (protein) MANQEIRYSEVTPYHVTSVWTKGVTPPANFRQGEDVFAAPYVANQGWYDITKTFNGKDDLLCGAATAGNMLHWWFDQNKDQIKRYLEEHPEKQKINFNGEQMFDVKELNTYESDHGYRDKSKLFEYFKEKAFPYLSTKHLGVFPDHVIDMFINGYRLSLTNHGPTPVKEGSKDPRGGIFDAVFTRGDQSKLLTSRHDFKEKNLKEISDLIKKELTEGKALGLSHTYANVRINHVINLWGADFDSNGNLKAIYVTDSDDKKLTIGDERIGMKKYFVGVNSAGKVAISAKEIKEDNIGAQVLGLFTLSTGQDSWNQTN', 'Enzyme Activity Endpoint Assay: Fc', 'ng/µL', 45);

Kindly review the next protein as well.
// recorded Enzyme Activity Endpoint Assay: Fc for PRT-276 (protein) MVTSVWTKGVTPPTDFIYGEDVLHAPYKAGQGWYDITKTFNGKDNLLCGAATAGNMLHWWFDQNKEQIENYLKKHPEKQKIIFNNQELFDLKAAIDTKDSQLDSKLFEYFLEKAFPNLSTKHLGVFPDHVIDMFINGYRLSLLNHGPTPVKRGSKDKRGGIFDAVFTRGVQSKLLTNRHDLKNKTLKEISDLIKQELTEGKALGISHTYANVRINHVINLWGADFDAEGNLEAIAVTDSDTNASIGMKKYFVGVNSSGKVAISAKEIEEDNIGAQVLGLFTLSTGQDIWNQTN : 383
